- Tested on: OVCAR-3 ovarian
- test summary: NCI tumour cell line growth inhibition, 48 h
quantity name: GI50

| compound | tested target | quantity name | reported measurement |
| --- | --- | --- | --- |
| O=C1C=C(OCC=C(Cl)Cl)C(=O)c2ccccc21 | OVCAR-3 ovarian | GI50 | 1900 nM |
| NC(N)=N/N=C/c1ccc(Br)cc1 | OVCAR-3 ovarian | GI50 | 3410 nM |
| O=C1CC2OCC=C3CN4CCC56c7ccccc7N1C5C2C3CC46 (stereo not given) (tested in a mixture with another compound) | OVCAR-3 ovarian | GI50 | > 50 µg/mL |
| CN1CCN(Cc2ccc(NC(=O)c3[nH]ncc3Nc3cc(OC4CCCC4)ncn3)cc2)CC1 | OVCAR-3 ovarian | GI50 | 1770 nM |
| Nc1nc(N)c(-c2ccc(Cl)cc2)c(/C=C/c2ccc([N+](=O)[O-])cc2)n1 | OVCAR-3 ovarian | GI50 | 5760 nM |
| CN(C)c1ccc(/C=c2\sc3nnc(Cc4ccccc4)n3c2=O)cc1 | OVCAR-3 ovarian | GI50 | > 100000 nM |
| Nc1nc(Cl)c2ncn(Cc3ccc(-c4ccc(CCl)cc4)cc3)c2n1 | OVCAR-3 ovarian | GI50 | 7300 nM |
| CCCC(CCC)C(=O)O | OVCAR-3 ovarian | GI50 | > 100000 nM |
| COc1cc(OC)c2c(c1Cl)O[C@]1(C2=O)C(OCc2ccccc2)=CC(=O)C[C@H]1C | OVCAR-3 ovarian | GI50 | 986 nM |
| CN1C(=O)C(C)(C)Oc2c(-c3cn(C)c(=O)c4[nH]ccc34)cc(S(C)(=O)=O)cc21 | OVCAR-3 ovarian | GI50 | 999 nM |

###

Below, each entry is listed alongside its reported TGI.
- Tested on: A498 renal
- test summary: NCI tumour cell line growth inhibition, 48 h
quantity name: TGI

| compound | reported measurement |
| --- | --- |
| Cc1cc2nc3c(C#N)c4c(c(Nc5ccc(Cl)cc5)n3c2cc1C)CCC4 | > 100 µM |
| COc1ccc2c(c1)C(=O)c1c-2n(CCCNCCO)c(=O)c2cc([N+](=O)[O-])ccc12 | < 0.0482 µM |
| O=C1NC(=O)C2(CCc3ccc(N(CCCl)CCCl)cc32)N1 (stereo not drawn) | 33.1 µM |
| CN/N=C(/CC(=O)c1sc(NNC(C)=O)nc1C)C(=O)Nc1ccc(OC)cc1OC | > 100 µM |
| COC(=O)CCc1c(/C=C2\N=C(c3ccc[nH]3)C=C2OC)[nH]c(C)c1C(=O)OCc1ccccc1 | 3.37 µM |
| NC(N)=N/N=C/c1ccc(Br)cc1 | 13.7 µM |
| Nc1ccc2c(c1)S(=O)(=O)c1cc(N)ccc1-2 | > 100 µM |
| Cc1ccc(C(=O)N/N=C(\N=Nc2ccccc2)c2ccc(N(CCC#N)CCC#N)cc2C)cc1 | > 100 µM |
| Nc1ncnc2c1ncn2C1OC(C(=O)OCCO)C(O)C1O (stereo not drawn) | > 100 µM |
| CCc1cccc(CC)c1NC(=O)C1=CNC(C)=C(C(=O)Nc2c(CC)cccc2CC)C1c1ccc(O)c(OC)c1 (stereo not drawn) | 76.4 µM |
| CC(=O)Nc1ccc(OCC(O)CO)cc1 (stereo not drawn) | > 100 µM |
| O=C1C=C(OCC=C(Cl)Cl)C(=O)c2ccccc21 | > 100 µM |
| N#CCCN(CCC#N)c1ccc(/C=C2\N=C(c3ccccc3)N(c3ccccc3)C2=O)cc1 | > 100 µM |
| O=C(CSCC(=O)N/N=C/c1ccncc1)N/N=C/c1ccncc1 | > 100 µM |
| CCN1C(=O)N(CC)C2C1NN=c1s/c(=C\c3cnc(C)n3C)c(=O)n12 (stereo not drawn) | 5.43 µM |
| Cc1ccc(SSCCCCS(=O)O)cc1 | 54.6 µM |
| C#CC1(O)CC(c2ccccc2)N(C)C(c2ccccc2)C1 (stereo not drawn) | > 100 µM |
| C[C@]12CC[C@H]3[C@@H](CCC4=CC(=O)CC[C@@]43C)[C@@H]1CC[C@@H]2OC(=O)c1cccc2c(=O)c3ccccc3[nH]c12 | > 100 µM |
| C1COCCOP2(N3CC3)=NP(N3CC3)(=NP(N3CC3)(N3CC3)=N2)OCCOCCO1 (stereo not drawn) | > 100 µM |
| Cc1cn(C2CC(O)C(Cn3nncc3Cn3ccc(=O)[nH]c3=O)O2)c(=O)[nH]c1=O (stereo not drawn) | > 100 µM |
| CCC(=O)Oc1ccc(/C=N/NC(N)=S)nc1 | > 100 µM |
| N=c1oc2ccc(Cl)cc2cc1C(=O)NC1CCCCC1 | > 100 µM |
| O=C(O)CSc1nnc2c3ccccc3c3ccccc3c2n1 | > 100 µM |

From: PubChem BioAssay (NCI)
